- Assayed system: native soluble IL-6R in human plasma (human, UniProt P08887)
- Assay remarks: ELISA 3, periplasmic extract; competitor BN-12; human plasma
Where OD450 ratio sample/blank equals or exceeds 1, the correct label is yes (1); where it does not, the label is no (0).

Data request: OD450 ratio sample/blank >= 1 for IL6RPMP101B2 (VHH) VHH: EVQLVESGGGLVQAGGSLRLSCTASGRTFTDYDMGWFRQAPGKEREVVAIIDTNGDNTLTVGSVKGRFAISSDNAKNTVYLQMNSLLPEDTAVYTCAAGAWSALRRSVANYWGQGTQVTVSS ?
Data returned: no (0)

New cases:
Data request: OD450 ratio sample/blank >= 1 for IL6RPMP108D1 (VHH) VHH: EVQLVESGGGLVQAGGSLRLSCTASGRTFSDYDMGWFRQAPGKERECVAVIDTNGDNTLTVGSVKGRFAISRDNAKNTVYLQMNSLLPEDTAVYTCAAGAWSSLRSTAANYWGQGTKVTVSS ?
Data returned: yes (1)
